Every entry's value here was drawn from patent US20230257372A1.

# MEASURED_ON: human recombinant HDAC1 (Homo sapiens)
# Construct: purchased Enzo Life Science, Inc. BML-SE456
# Sequence (Q13547 whole entry): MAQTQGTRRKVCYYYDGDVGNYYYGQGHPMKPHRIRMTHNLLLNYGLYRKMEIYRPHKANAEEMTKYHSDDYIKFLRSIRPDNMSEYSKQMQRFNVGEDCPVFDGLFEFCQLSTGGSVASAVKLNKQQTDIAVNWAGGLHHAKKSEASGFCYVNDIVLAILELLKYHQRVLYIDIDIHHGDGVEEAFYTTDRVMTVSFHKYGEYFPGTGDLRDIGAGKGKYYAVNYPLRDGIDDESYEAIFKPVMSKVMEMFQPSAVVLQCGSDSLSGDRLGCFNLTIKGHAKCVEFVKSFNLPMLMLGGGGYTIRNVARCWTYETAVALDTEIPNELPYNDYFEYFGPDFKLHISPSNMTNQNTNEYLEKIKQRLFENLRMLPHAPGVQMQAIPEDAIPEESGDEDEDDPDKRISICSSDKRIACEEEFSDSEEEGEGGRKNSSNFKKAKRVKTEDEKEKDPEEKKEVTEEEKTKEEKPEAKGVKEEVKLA
# TEST_SUMMARY: HDAC1 enzyme activity inhibition (HDAC Fluorimetric Drug Discovery Kit)
# Format: biochemical
# MEASUREMENT_SETUP: human recombinant HDAC1, Fluor de Lys substrate, 30° C. 60 minutes; read-out: HDAC1
MEASUREMENT_TYPE: IC50

A selection of reference data follows.
Fc1cc(-c2cn(Cc3ncc(-c4nnc(C(F)F)o4)cc3F)nn2)ccc1CN1CCC1 > 50 µM
Fc1cc(-c2nnc(C(F)F)o2)cnc1Cn1cc(-c2ccc3cc[nH]c3c2)nn1 > 50 µM

Challenge: Report IC50 for CCN1CCN(c2cccc(-c3cn(Cc4ccc(-c5nnc(C(F)F)o5)cn4)nn3)c2F)CC1 please.
Response given: > 50 µM

Challenge: Report IC50 for CCN(CC)Cc1ccc(-c2cn(Cc3ccc(-c4nnc(C(F)F)o4)cc3F)nn2)cc1 please.
Response given: > 50 µM

---

# MEASURED_ON: human recombinant HDAC6 (Homo sapiens, UniProt Q9UBN7)
# Construct: purchased Calbiochem Inc. 382180
# Sequence (Q9UBN7 whole entry): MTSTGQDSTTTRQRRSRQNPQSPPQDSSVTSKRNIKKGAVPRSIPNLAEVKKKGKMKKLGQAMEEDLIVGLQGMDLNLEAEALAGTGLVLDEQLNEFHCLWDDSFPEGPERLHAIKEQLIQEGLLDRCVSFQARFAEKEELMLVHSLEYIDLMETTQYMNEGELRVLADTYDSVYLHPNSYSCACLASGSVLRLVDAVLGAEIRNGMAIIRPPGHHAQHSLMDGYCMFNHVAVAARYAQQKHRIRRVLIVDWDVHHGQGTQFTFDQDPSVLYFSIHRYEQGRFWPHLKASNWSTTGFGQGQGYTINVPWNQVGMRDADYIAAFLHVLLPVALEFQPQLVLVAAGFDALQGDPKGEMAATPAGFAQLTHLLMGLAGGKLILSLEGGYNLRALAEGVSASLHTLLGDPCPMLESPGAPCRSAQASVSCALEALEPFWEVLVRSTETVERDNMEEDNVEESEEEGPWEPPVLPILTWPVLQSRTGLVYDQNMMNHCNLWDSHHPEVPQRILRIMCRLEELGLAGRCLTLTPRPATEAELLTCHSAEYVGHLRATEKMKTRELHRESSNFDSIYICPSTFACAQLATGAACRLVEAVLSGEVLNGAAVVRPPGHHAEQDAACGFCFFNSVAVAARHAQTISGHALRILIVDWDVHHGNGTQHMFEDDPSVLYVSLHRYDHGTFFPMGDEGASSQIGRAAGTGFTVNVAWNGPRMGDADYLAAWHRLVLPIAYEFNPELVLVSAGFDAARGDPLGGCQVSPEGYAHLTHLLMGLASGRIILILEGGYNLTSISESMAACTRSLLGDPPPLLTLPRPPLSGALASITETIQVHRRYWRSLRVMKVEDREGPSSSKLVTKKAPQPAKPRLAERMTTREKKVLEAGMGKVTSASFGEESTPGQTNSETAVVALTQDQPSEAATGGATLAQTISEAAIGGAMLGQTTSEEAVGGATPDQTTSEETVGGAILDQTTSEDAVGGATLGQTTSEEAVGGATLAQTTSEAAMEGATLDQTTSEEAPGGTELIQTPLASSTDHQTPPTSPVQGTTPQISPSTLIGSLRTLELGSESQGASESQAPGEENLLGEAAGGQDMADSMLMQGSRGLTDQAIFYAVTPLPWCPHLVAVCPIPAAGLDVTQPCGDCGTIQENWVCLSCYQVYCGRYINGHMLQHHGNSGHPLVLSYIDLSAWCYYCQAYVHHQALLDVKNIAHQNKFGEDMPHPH
# TEST_SUMMARY: HDAC6 enzyme activity inhibition (HDAC Fluorimetric Drug Discovery Kit)
# Assay type: biochemical
# MEASUREMENT_SETUP: HDAC1 IC50 / HDAC6 IC50
MEASUREMENT_TYPE: HDAC6 selectivity (fold)

MOLECULE	MEASURED_ON	VALUE_UNITS	HDAC6 selectivity (fold)
FC(F)c1nnc(-c2ccc(Cn3cc(-c4cccc5[nH]ccc45)nn3)cc2)o1 [Compound 4078]	human recombinant HDAC6 (Homo sapiens, UniProt Q9UBN7)	fold	1424
O=c1[nH]cccc1-c1cn(Cc2ccc(-c3nnc(C(F)F)o3)cn2)nn1 [Compound 3844]	human recombinant HDAC6 (Homo sapiens, UniProt Q9UBN7)	fold	2415
FC(F)c1nnc(-c2ccc(Cn3cc(-c4ccc5[nH]ccc5c4)nn3)cc2)o1 [Compound 4080]	human recombinant HDAC6 (Homo sapiens, UniProt Q9UBN7)	fold	2145

P = FC(F)c1nnc(-c2ccc(Cn3cc(-c4cccc5[nH]ncc45)nn3)cc2)o1 [Compound 4347]
Q = CCN1CCN(Cc2cccc(-c3cn(Cc4ccc(-c5nnc(C(F)F)o5)cc4)nn3)c2)CC1 [Compound 4415]
Challenge: Could you determine which record has the numerically smaller HDAC6 selectivity (fold)? Candidates: P and Q Please reply using the label of the selected record.
Response given: Q

I = FC(F)c1nnc(-c2ccc(Cn3cc(C4(F)CCOC4)nn3)nc2)o1 (stereo not shown) [Compound 4281]
II = FC(F)c1nnc(-c2ccc(Cn3cc(-c4ccc(Br)nc4)nn3)nc2)o1 [Compound 4183]
Challenge: Could you determine which record has the numerically smaller HDAC6 selectivity (fold)? Candidates: I and II Please reply using the label of the selected record.
Response given: I
(I: 412 fold, II: 896 fold)

I = Fc1ccc(N2CCN(C3COC3)CC2)cc1-c1cn(Cc2ccc(-c3nnc(C(F)F)o3)cc2)nn1 [Compound 4455]
II = Cn1ccc2ccc(-c3cn(Cc4ccc(-c5nnc(C(F)F)o5)cn4)nn3)cc21 [Compound 3914]
III = CC(C)N1CCC(c2cccc(-c3cn(Cc4ccc(-c5nnc(C(F)F)o5)cn4)nn3)c2)CC1 [Compound 4012]
IV = CCCN1CCN(c2cccc(-c3cn(Cc4ccc(-c5nnc(C(F)F)o5)cc4F)nn3)c2)CC1 [Compound 4374]
Challenge: // ascending sort on recorded HDAC6 selectivity (fold) Give me the labels in the order the question wants.
Response given: IV, I, II, III
(IV: 228 fold, I: 520 fold, II: 1190 fold, III: 2358 fold)

A = CCN1CCC(F)(c2cn(Cc3ccc(-c4nnc(C(F)F)o4)cn3)nn2)CC1 [Compound 4006]
B = Fc1cc(-c2nnc(C(F)F)o2)ccc1Cn1cc(-c2ccc(F)c(N3CCN(C4COC4)CC3)c2)nn1 [Compound 4427]
C = CN(C)C(C)(C)C(=O)Nc1cccc(-c2cn(Cc3ccc(-c4nnc(C(F)F)o4)cn3)nn2)c1 [Compound 4231]
D = Cc1cncc(-c2cn(Cc3ccc(-c4nnc(C(F)F)o4)cn3)nn2)c1 [Compound 3884]
Challenge: // ascending sort on recorded HDAC6 selectivity (fold) Give me the labels in the order the question wants.
Response given: A, B, C, D
(A: 375 fold, B: 548 fold, C: 914 fold, D: 1329 fold)

---

# MEASURED_ON: human recombinant HDAC6 (Homo sapiens, UniProt Q9UBN7)
# Construct: purchased Calbiochem Inc. 382180
# TEST_SUMMARY: HDAC6 enzyme activity inhibition (HDAC Fluorimetric Drug Discovery Kit)
# Format: biochemical
# MEASUREMENT_SETUP: HDAC6 over HDAC1
MEASUREMENT_TYPE: HDAC6 selectivity (fold)

A selection of reference data follows.
CCN1CCN(c2cc(-c3cn(Cc4ccc(-c5nnc(C(F)F)o5)cc4F)nn3)ccn2)CC1 2074
Fc1cc(-c2nnc(C(F)F)o2)ccc1Cn1cc(-c2ccc(Br)cn2)nn1 586
Fc1cc(-c2nnc(C(F)F)o2)ccc1Cn1cc(-c2ccc(CN3CCC(F)(F)C3)nc2)nn1 531
Fc1cc(-c2nnc(C(F)F)o2)ccc1Cn1cc(-c2csc(CN3CCC3)c2)nn1 657

a = CN1Cc2ccc(-c3cn(Cc4ccc(-c5nnc(C(F)F)o5)cc4F)nn3)cc2C1
b = CN1Cc2ccc(-c3cn(Cc4ccc(-c5nnc(C(F)F)o5)cc4)nn3)cc2C1
Challenge: Choose between a and b : whose measured HDAC6 selectivity (fold) value is numerically larger? Please reply using the label of the selected record.
Response given: a
(a: 900 fold, b: 495 fold)

A = Fc1cc(-c2nnc(C(F)F)o2)ccc1Cn1cc(-c2ccc(CN3CC[C@H](F)C3)s2)nn1
B = FC(F)c1nnc(-c2ccc(Cn3cc(-c4cccc5c4CN(C4COC4)C5)nn3)cc2)o1
Challenge: Choose between A and B : whose measured HDAC6 selectivity (fold) value is numerically larger? Please reply using the label of the selected record.
Response given: A
(A: 556 fold, B: 318 fold)

---

# MEASURED_ON: human recombinant HDAC6 (Homo sapiens)
# Construct: purchased Calbiochem Inc. 382180
# TEST_SUMMARY: HDAC6 enzyme activity inhibition (HDAC Fluorimetric Drug Discovery Kit)
# Assay type: biochemical
# MEASUREMENT_SETUP: HDAC1 IC50 / HDAC6 IC50
MEASUREMENT_TYPE: HDAC6 selectivity (fold)

MOLECULE	HDAC6 selectivity (fold)
CN(C)C(C)(C)C(=O)Nc1cccc(-c2cn(Cc3ccc(-c4nnc(C(F)F)o4)cc3)nn2)c1	1193

a = CC(C)N1CCN(c2cccc(-c3cn(Cc4ccc(-c5nnc(C(F)F)o5)cn4)nn3)c2)CC1
b = CCN1CCCC(c2cn(Cc3ccc(-c4nnc(C(F)F)o4)cn3)nn2)C1 (stereo not shown)
c = FC(F)c1nnc(-c2ccc(Cn3cc(C4=CCCCC4)nn3)nc2)o1
Challenge: // ascending sort on recorded HDAC6 selectivity (fold) Give me the labels in the order the question wants.
Response given: b, c, a
(b: 96 fold, c: 773 fold, a: 1298 fold)

---

# MEASURED_ON: human recombinant HDAC6 (Homo sapiens)
# Construct: purchased Calbiochem Inc. 382180
# TEST_SUMMARY: HDAC6 enzyme activity inhibition (HDAC Fluorimetric Drug Discovery Kit)
# Assay type: biochemical
# MEASUREMENT_SETUP: HDAC1 IC50 / HDAC6 IC50
MEASUREMENT_TYPE: HDAC6 selectivity (fold)

COMPOUND	MEASURED_ON	VALUE_UNITS	VALUE_REPORTED
O=S1(=O)CCN(Cc2cccc(-c3cn(Cc4ccc(-c5nnc(C(F)F)o5)cc4)nn3)c2)CC1	human recombinant HDAC6 (Homo sapiens)	fold	432
FC(F)c1nnc(-c2ccc(Cc3nnc(-c4ccccc4)o3)cc2)o1	human recombinant HDAC6 (Homo sapiens)	fold	272
Fc1ccc(-c2cn(Cc3ccc(-c4nnc(C(F)F)o4)cc3F)nn2)cc1F	human recombinant HDAC6 (Homo sapiens)	fold	289

1 = FC(F)c1nnc(-c2ccc(Cn3cc(-c4ccc(-n5cncn5)cc4)nn3)nc2)o1
2 = FC(F)c1nnc(-c2ccc(Cn3cc(-c4cccc(NC5CCOCC5)c4)nn3)cc2)o1
Challenge: Could you determine which record has the numerically smaller HDAC6 selectivity (fold)? Candidates: 1 and 2 Please reply using the label of the selected record.
Response given: 2

---

# MEASURED_ON: human recombinant HDAC6 (Homo sapiens, UniProt Q9UBN7)
# Construct: purchased Calbiochem Inc. 382180
# TEST_SUMMARY: HDAC6 enzyme activity inhibition (HDAC Fluorimetric Drug Discovery Kit)
# Type: biochemical
# MEASUREMENT_SETUP: HDAC6 over HDAC1
MEASUREMENT_TYPE: HDAC6 selectivity (fold)

Fc1cc(-c2nnc(C(F)F)o2)cnc1Cn1cc(-c2cccc(CN3CCCC3)c2Cl)nn1 665
Fc1cc(-c2nnc(C(F)F)o2)ccc1Cn1cc(-c2cnc3[nH]ccc3c2)nn1 6024
FC(F)c1nnc(-c2ccc(Cn3cc(-c4ccc(CN5CCCC5)cc4)nn3)nc2)o1 4672
CC(C)N1CCN(c2cc(-c3cn(Cc4ccc(-c5nnc(C(F)F)o5)cc4F)nn3)ccn2)CC1 2525
CN(C)Cc1cc(-c2cn(Cc3ccc(-c4nnc(C(F)F)o4)cc3F)nn2)cs1 668
FC(F)c1nnc(-c2ccc(Cn3cc(-c4cccc5c4CN(C4CCC4)C5)nn3)nc2)o1 1108

A = CC(C)N1Cc2cccc(-c3cn(Cc4ccc(-c5nnc(C(F)F)o5)cn4)nn3)c2C1
B = Fc1cc(-c2nnc(C(F)F)o2)ccc1Cn1cc(-c2cccc(N3CCN(CC4(F)CC4)CC3)c2F)nn1
Challenge: Could you determine which record has the numerically smaller HDAC6 selectivity (fold)? Candidates: A and B Please reply using the label of the selected record.
Response given: B
